# credit: PubChem BioAssay

GFP response relative to DMSO listing for selected compounds.
# testMethodNotes: LAP4-GFP expression modulators in yeast, confirmation, cell-based, cherry picks, flow cytometry, mother/daughter gates (AID 2271);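 further: ratio of sample to DMSO plate mean so 100% equals DMSO level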
# condition: S. cerevisiae LAP4-GFP strain, 3 h, measured here: mother cell gate response, at 10 µM, stronger effect = higher value, 100 means same as DMSO control
Hi! Could you send only the number? It should be in %, unit omitted.

- compound: "Fc1ccccc1-c1nc(NCCCN2CCOCC2)c2ccccc2n1"
  measurement: 98.3

Query :: Given the compound CC(=O)Nc1cccc(C(=O)/C=C/c2ccc(C)cc2)c1 , what is its reported GFP response relative to DMSO?
Result :: 120

Query :: Give its GFP response relative to DMSO value. Item: COc1ccc(-c2[nH]ncc2N=Nc2ccccc2)cc1
Result :: 108

====

Listed here are molecules together with their documented superoxide response (% of plate).
# testMethodNotes: superoxide lowering in aged yeast cells, pilot screen, validation compound set (AID 2706);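 further: yeast exposed to compound for one week at 30 degrees C before staining; 100% = mean of all compound wells on the same plate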
# condition: S. cerevisiae aging, superoxide DHE fluorescence; at 10 µM, stronger effect = lower value
Write it as a number; the unit % goes unstated.

Example results:
- molecule: "C[C@]12C=CC(=O)C=C1CCC1C3CC[C@](O)(C(=O)CO)[C@@]3(C)CC3OC312 (some centres not stated)"
  superoxide response (% of plate) (%): 87.7
- molecule: "CCNC(=S)Nc1ccc(OC(F)(F)F)cc1"
  superoxide response (% of plate) (%): 93.5
- molecule: "OCCN(CCO)c1ccc2ccccc2c1"
  superoxide response (% of plate) (%): 98.1

Query :: Return reported superoxide response (% of plate); argument: CC(C)OC(=O)C(C)(C)Oc1ccc(C(=O)c2ccc(Cl)cc2)cc1
Result :: 106

Query :: # input molecule: COc1ccccc1-c1ccc(/C=C2/C=C(CC(C)C)OC2=O)o1 ; wanted: its superoxide response (% of plate)
Result :: 103

Query :: Please look up its superoxide response (% of plate): COC1=CC(=O)CC(C)C12Oc1c(Cl)c(OC)cc(OC)c1C2=O (configuration not stated)
Result :: 97.4

====

Measured GFP response, % of DMSO values are reported for all entries that follow.
# testMethodNotes: modulators of CIT2-GFP expression in yeast, confirmation, S. cerevisiae, GFP fusion, cherry picks, mother/daughter gates (AID 2274)
# condition: S. cerevisiae CIT2-GFP strain, flow cytometry, 3 h; at 10 µM; stronger effect = higher value
// units = %; emit number, no label

Worked examples, 8 compounds total:
- compound: "COc1ccccc1NC(=O)c1ccc(N)cc1"
  unitsText: "%"
  measurement: 102
- compound: "COc1ccc(C(=O)/C=C2/C(=O)Nc3ccccc32)cc1"
  unitsText: "%"
  measurement: 98.3
- compound: "N#C/C(=C/c1ccc(N2CCOCC2)o1)c1ccc(Cl)cc1"
  unitsText: "%"
  measurement: 104
- compound: "CCCNC(=O)COC(=O)c1ccc(S(=O)(=O)N2CCCC2)cc1"
  unitsText: "%"
  measurement: 99.7
- compound: "O=C1c2cccc3cccc(c23)C(=O)N1c1nncs1"
  unitsText: "%"
  measurement: 96.5
- compound: "COc1ccc(NC(=O)C2C3C=CC(C3)C2C(=O)NCc2ccco2)c(OC)c1 (stereo not drawn)"
  unitsText: "%"
  measurement: 98.6
- compound: "O=C(CN1C(=O)c2cccc3cccc(c23)C1=O)N1CCCCCC1"
  unitsText: "%"
  measurement: 100
- compound: "CCC(=O)OCCNc1cc(Sc2nc3ccccc3s2)c2nonc2c1[N+](=O)[O-]"
  unitsText: "%"
  measurement: 80.8

Query :: Which GFP response, % of DMSO reading was recorded for the compound COc1cccc(-c2noc(-c3cccnc3)n2)c1 ?
Result :: 103

Query :: Which GFP response, % of DMSO value is on record for Cc1ccc(NC(=S)c2nc3ccccc3[nH]2)cc1 ?
Result :: 102

====

Below: a set of entries, each annotated with reported inhibition.
# testedTarget: Integrin beta-1 (Homo sapiens) + Integrin alpha-4 (Homo sapiens) (UniProt P13612+P05556)
# Sequence (P05556 whole entry, looked up): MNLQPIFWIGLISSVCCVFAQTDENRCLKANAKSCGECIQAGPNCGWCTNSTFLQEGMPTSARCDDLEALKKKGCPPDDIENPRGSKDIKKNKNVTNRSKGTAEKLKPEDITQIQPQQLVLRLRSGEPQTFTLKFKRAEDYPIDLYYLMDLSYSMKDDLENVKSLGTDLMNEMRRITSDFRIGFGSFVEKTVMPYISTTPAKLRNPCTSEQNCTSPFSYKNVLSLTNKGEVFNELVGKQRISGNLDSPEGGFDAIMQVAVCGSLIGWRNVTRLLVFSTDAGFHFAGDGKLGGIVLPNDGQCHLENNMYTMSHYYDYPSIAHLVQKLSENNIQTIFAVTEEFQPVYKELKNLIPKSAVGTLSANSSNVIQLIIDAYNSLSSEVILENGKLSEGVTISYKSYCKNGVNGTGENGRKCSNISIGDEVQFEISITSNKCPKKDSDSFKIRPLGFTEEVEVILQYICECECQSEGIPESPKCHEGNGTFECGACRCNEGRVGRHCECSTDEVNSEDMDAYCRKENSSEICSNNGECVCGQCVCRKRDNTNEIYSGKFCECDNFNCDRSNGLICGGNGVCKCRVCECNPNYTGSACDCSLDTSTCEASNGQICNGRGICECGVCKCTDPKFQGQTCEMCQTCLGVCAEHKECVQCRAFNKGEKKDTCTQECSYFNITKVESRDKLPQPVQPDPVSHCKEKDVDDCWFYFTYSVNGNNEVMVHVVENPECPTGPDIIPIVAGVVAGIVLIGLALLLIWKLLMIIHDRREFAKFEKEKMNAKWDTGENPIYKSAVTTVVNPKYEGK
# Sequence (P13612 whole entry, looked up): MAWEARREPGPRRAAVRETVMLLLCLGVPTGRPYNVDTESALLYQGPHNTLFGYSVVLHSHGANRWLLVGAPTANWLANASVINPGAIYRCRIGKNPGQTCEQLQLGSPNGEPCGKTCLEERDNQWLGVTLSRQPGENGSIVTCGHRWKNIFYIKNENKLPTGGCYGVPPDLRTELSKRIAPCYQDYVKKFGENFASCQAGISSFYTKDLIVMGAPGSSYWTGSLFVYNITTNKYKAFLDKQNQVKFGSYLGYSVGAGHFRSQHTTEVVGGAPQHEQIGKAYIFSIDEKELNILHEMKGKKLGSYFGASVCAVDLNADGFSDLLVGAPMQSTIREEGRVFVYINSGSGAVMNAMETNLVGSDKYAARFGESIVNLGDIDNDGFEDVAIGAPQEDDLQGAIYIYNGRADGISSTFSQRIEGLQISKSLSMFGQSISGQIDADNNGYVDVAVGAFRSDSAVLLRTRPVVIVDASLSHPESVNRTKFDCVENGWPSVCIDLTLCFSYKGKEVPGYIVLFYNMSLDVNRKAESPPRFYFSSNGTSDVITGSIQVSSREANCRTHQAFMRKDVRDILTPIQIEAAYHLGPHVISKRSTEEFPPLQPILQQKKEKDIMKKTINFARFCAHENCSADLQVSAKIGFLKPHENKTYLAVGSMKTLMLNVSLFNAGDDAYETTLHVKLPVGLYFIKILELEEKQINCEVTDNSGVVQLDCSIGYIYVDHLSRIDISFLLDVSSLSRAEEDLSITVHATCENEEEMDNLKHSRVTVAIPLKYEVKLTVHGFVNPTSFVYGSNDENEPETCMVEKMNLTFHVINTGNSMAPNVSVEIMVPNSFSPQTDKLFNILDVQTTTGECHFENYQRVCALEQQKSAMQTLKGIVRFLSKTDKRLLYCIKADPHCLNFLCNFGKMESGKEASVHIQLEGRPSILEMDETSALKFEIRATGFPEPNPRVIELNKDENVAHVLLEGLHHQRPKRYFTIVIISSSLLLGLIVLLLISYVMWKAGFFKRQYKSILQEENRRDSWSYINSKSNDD
# testMethodNotes: inhibition of HUTS-21 binding to VLA-4, pilot screen, VLA-4 allosteric modulator project, U937 cells, HUTS-21 mAb, flow cytometry, validation set (AID 2674);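 further: antibody binding induced by the VLA-4 ligand LDV present at three times its Kd; 0% = LDV ligand with antibody and no compound and 100% = antibody without LDV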
# condition: HUTS-21 LIBS mAb binding, at 6.7 µM, stronger effect = higher value, binding induced by LDV ligand
Write the answer as a number in %, unit excluded.

- molecule: "O=C(Nc1c(C(=O)O)[nH]c2ccccc12)NC1CCCCC1"
  unitsText: "%"
  inhibition: -17.3
- molecule: "CC(=O)OCC(=O)[C@@]12OC3(CCCC3)O[C@@H]1C[C@H]1[C@@H]3CCC4=CC(=O)C=C[C@]4(C)[C@@]3(F)[C@@H](O)C[C@@]12C"
  unitsText: "%"
  inhibition: -12.4
- molecule: "COC(=O)CN1CC(=O)N(c2ccccc2)C1=S"
  unitsText: "%"
  inhibition: 6.29

Query :: Recorded inhibition for CC(C)CN1CC(C(=O)O)CC1=O (stereo not given) , please?
Result :: 1.12

Query :: Could you share which inhibition value was measured for COCCn1c(/C=C/c2ccccc2)nc2ccccc21 ?
Result :: 1.62

====

# testMethodNotes: modulators of MEP2-GFP levels in yeast, confirmation, S. cerevisiae, flow cytometry GFP, cherry picks (AID 2272);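 further: ratio of well signal to plate DMSO mean so 100% equals DMSO level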
# condition: S. cerevisiae MEP2-GFP strain, 3 h, at 10 µM, stronger effect = higher value
assayReadout: GFP response vs DMSO (%)
The reply should be a number in %, with the unit left off.

- molecule: "O=C(NNC(=S)NC(=O)c1ccco1)c1ccc(F)cc1"
  unitsText: "%"
  GFP response vs DMSO: 115
- molecule: "CCN1/C(=C/C(C)=C/c2sc3ccccc3[n+]2CC)Sc2ccccc21"
  unitsText: "%"
  GFP response vs DMSO: 133

Query :: Dear colleague, I am looking for the recorded GFP response vs DMSO of the following molecule: O=C(N/N=C/c1c(Cl)cccc1Cl)c1cccc(F)c1
Result :: 103

Query :: Tell me the measured GFP response vs DMSO of COc1cc(/C=N/Nc2nc(C)cc(=O)[nH]2)ccc1O , please.
Result :: 106

Query :: May I ask what GFP response vs DMSO has been recorded for CCOC(=O)C1CCCN(c2c(C(=O)c3ccccc3)cnc3ccccc23)C1 (stereo not drawn) ?
Result :: 97.5

Query :: Entry under review: O=C(NC(=S)NNC(=O)[C@H]1C[C@@H]1c1ccccc1)c1cccc(F)c1 . Reported GFP response vs DMSO?
Result :: 135

Query :: # get_value(readout='GFP response vs DMSO', item= CCOC(=O)C(C(=O)OCC)C(C(=O)OCC)N1CCOCC1 (stereo not drawn) )
Result :: 108

Query :: # input molecule: Clc1ccc(Nc2ncnc3ccc(Br)cc23)cc1 ; wanted: its GFP response vs DMSO
Result :: 95.4

Query :: Request the reported GFP response vs DMSO associated with Cc1nc(Sc2ccccc2)c(C#N)c(C)c1[N+](=O)[O-]
Result :: 109

Query :: Which GFP response vs DMSO value is on record for Cc1ccc(C(C(=O)NC2CCCCC2)N(CCCN2CCOCC2)C(=O)c2snc(C(N)=O)c2N)cc1 (stereo not drawn) ?
Result :: 99.5

Query :: What value of GFP response vs DMSO has been reported for the following molecule? Cc1cc(N2CCC(C)CC2)n2nc(C)c(-c3ccccc3)c2n1
Result :: 104

Query :: Record request: GFP response vs DMSO value, item O=C(Cc1ccc(Cl)cc1)NNC(=S)NC(=O)c1cccs1
Result :: 114

Query :: For O=C(c1ccc(Cl)cc1)N1CCN(c2cccc3[nH]ccc23)CC1 , what is its reported GFP response vs DMSO?
Result :: 105

Query :: State the recorded GFP response vs DMSO for this entry: Oc1c(Br)cc(Br)cc1C=Nc1ccc2[nH]ncc2c1
Result :: 112

Query :: What value of measured GFP response vs DMSO is listed for CCn1c(=O)c(C(=O)NCc2ccc(OC)cc2)c(O)c2ccccc21 ?
Result :: 106

====

Below is a list of entries, each paired with its recorded vesicle binding response value.
# testMethodNotes: inhibitors of CD8+ T cell-vesicle binding, pilot screen, LFA-1/ICAM-1 modulator project, MLPCN validation set, flow cytometry (AID 2523);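 further: mean PE anti-B7-1 fluorescence of CD8+ cells relative to row control; 100% = QL9-loaded vesicles with DMSO vehicle in the same plate row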
# condition: 2C mouse CD8+ T cells, at 7 µM, stronger effect = lower value
Output spec: scalar in %, unitless text.

- molecule: "CCOc1ccc(NC(=O)N[C@@H](CCSC)C(=O)OC)cc1"
  measurement: 164

Query :: Quick check: vesicle binding response of C[C@]12CC[C@@H]3c4ccc(OS(=O)(=O)O)cc4CC[C@H]3[C@@H]1CCC2=O ?
Result :: 292

Query :: vesicle binding response lookup needed for O=C1OC(c2ccc(O)cc2)(c2ccc(O)cc2)c2ccccc21 , thanks.
Result :: 180

Query :: So what does the record say about vesicle binding response for CN(C)CCOc1ccccc1Cc1ccccc1 ?
Result :: 210

Query :: Would you mind telling me what vesicle binding response value was observed for CC1(C)S[C@@H]2[C@H](NC(=O)C(C(=O)O)c3ccccc3)C(=O)N2[C@H]1C(=O)O (some centres not stated) ?
Result :: 212

Query :: Would you kindly share the measured vesicle binding response for CC(C)Oc1ccc(C(CC(=O)O)c2ccc(F)cc2)cc1 (configuration not stated) ?
Result :: 164

Query :: Name the reported vesicle binding response value associated with the molecule CC1CCCc2sc3ncn(N)c(=N)c3c21 (configuration not stated)
Result :: 246
